Each item that follows carries a reported normalized growth.
# test summary: chemical genetic growth profiling, strain panel (AID 1159580);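 note: tested at 20 µM; growth read once vehicle control cultures reached saturation at 30 °C; 1 = growth at the plate median or of vehicle wells; lower values mean less growth of the strain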
# condition set: S. cerevisiae deletion strains, growth OD, locus YDR334W, strain swr1, active compounds read low
The whole screen tested about 5,500 compounds, of which about 2,000 (36%) were called active. Another 18% or so got no clear call; they are omitted. This is one part of the list.
Response field accepts a number only; no unit should be typed.

# compound, quantity, recorded measurement
data = [
    ("CC(C)(O)CC[C@@H](O)[C@](C)(O)C1CC[C@@]2(O)C3=CC(=O)C4C[C@@H](O)[C@@H](O)C[C@]4(C)C3CC[C@]12C (stereo not given in full)", "normalized growth", 1),
    ("O=c1[nH]c2ccccc2n1CCCN1CCC(n2c(=O)[nH]c3cc(Cl)ccc32)CC1", "normalized growth", 0.976),
    ("CC1(C)C[C@@H]2C(=O)CC[C@H]3O[C@]3(C)CC[C@H]21", "normalized growth", 1.01),
]

Task: Please list normalized growth recorded for the compound CCCC(=O)Nc1ncnc2c1ncn2C1O[C@@H]2COP(=O)(O)O[C@H]2[C@H]1OC(=O)CCC (stereo not given in full)
Output: 0.975

Task: Please list normalized growth recorded for the compound "O=c1[nH]c2ccccc2n1C1CCN(CCCC(c2ccc(F)cc2)c2ccc(F)cc2)CC1"
Output: 1.01

---

# test summary: chemical genetic growth profiling, strain panel (AID 1159580);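 note: tested at 20 µM; growth read once vehicle control cultures reached saturation at 30 °C; 1 = growth at the plate median or of vehicle wells; lower values mean less growth of the strain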
# condition set: S. cerevisiae deletion strains, growth OD, locus YPL256C, strain CLN2, active compounds read low
Among all 5,500 compounds or so, about 2,000 (36%) were called active. Roughly 18% stayed inconclusive and do not appear here. The list shows a part of the results.
quantity: normalized growth
Response field accepts a number only; no unit should be typed.

Worked examples follow.
# compound, normalized growth
rows = [
    ("c1ccc2c(c1)[nH]c1cnccc12", 1.02),
    ("CN(C)c1nc(=S)ss1", 0.393),
    ("C[C@]12CCC3c4ccc(O)cc4CCC3C1CC[C@@H]2OC(=O)CCC1CCCC1 (some centres undefined)", 1.03),
]

Please find the next compound below.
Task: Please list normalized growth recorded for the compound "O=C(CCCN1CC=C(n2c(=O)[nH]c3ccccc32)CC1)c1ccc(F)cc1"
Output: 0.991

---

# test summary: chemical genetic growth profiling, strain panel (AID 1159580);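 note: tested at 20 µM; growth read once vehicle control cultures reached saturation at 30 °C; 1 = growth at the plate median or of vehicle wells; lower values mean less growth of the strain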
# condition set: S. cerevisiae deletion strains, growth OD, locus YOR270C, strain vph1, active compounds read low
Among all 5,500 compounds or so, about 2,000 (36%) were called active. Not shown: some 18% with an inconclusive outcome. This is one part of the list.
quantity: normalized growth
Response field accepts a number only; no unit should be typed.

# compound, normalized growth
measured = [
    ("Cn1c(=O)[nH]c(=O)c2[nH]cnc21", 0.981),
]

Task: Please list normalized growth recorded for the compound "c1ccc2c(c1)[nH]c1cnccc12"
Output: 1

Task: Please list normalized growth recorded for the compound "COc1ccc2c(c1)[nH]c1c(C)nccc12"
Output: 0.974

Task: Please list normalized growth recorded for the compound C[C@]12C=CC(=O)C=C1CCC1C2C(=O)C[C@@]2(C)C1CC[C@]2(O)C(=O)CO (stereo not given in full)
Output: 1.02

Task: Please list normalized growth recorded for the compound "CCNc1nc(Cl)nc(NC(C)C)n1"
Output: 0.975
